The measurements presented in this section are drawn from ChEMBL document CHEMBL1135723.

// Disintegrin and metalloproteinase domain-containing protein 17 (Homo sapiens) pKi records
In simple prose, pKi is minus the logarithm base ten of a concentration in moles per litre.

# value lookup — system Disintegrin and metalloproteinase domain-containing protein 17 (Homo sapiens), readout pKi, item CCOP(=O)(c1ccc(Oc2ccncc2)cc1)N1Cc2ccccc2CC1C(=O)NO (stereo not given)
7.86

# value lookup — system Disintegrin and metalloproteinase domain-containing protein 17 (Homo sapiens), readout pKi, item CCOP(=O)(/C=C/c1ccccc1)N1Cc2ccccc2CC1C(=O)NO (stereo not given)
7.43

# value lookup — system Disintegrin and metalloproteinase domain-containing protein 17 (Homo sapiens), readout pKi, item CCOP(=O)(c1ccc(Oc2ccc(N)cc2)cc1)N1Cc2ccccc2CC1C(=O)NO (stereo not given)
7.66

# value lookup — system Disintegrin and metalloproteinase domain-containing protein 17 (Homo sapiens), readout pKi, item COc1ccc(P(=O)(OCCc2ccc(-c3ccccc3)cc2)N2Cc3ccccc3CC2C(=O)NO)cc1 (stereo not given)
7.04

# value lookup — system Disintegrin and metalloproteinase domain-containing protein 17 (Homo sapiens), readout pKi, item CCOP(=O)(c1cccc(F)c1)N1Cc2ccccc2CC1C(=O)NO (stereo not given)
7.64

# value lookup — system Disintegrin and metalloproteinase domain-containing protein 17 (Homo sapiens), readout pKi, item CCOP(=O)(c1ccc(OC)cc1)N1Cc2nccnc2CC1C(=O)NO (stereo not given)
7.86

# value lookup — system Disintegrin and metalloproteinase domain-containing protein 17 (Homo sapiens), readout pKi, item CCOP(=O)(c1ccc(OC)cc1)N1Cc2cc(N)ccc2CC1C(=O)NO (stereo not given)
7.43

# value lookup — system Disintegrin and metalloproteinase domain-containing protein 17 (Homo sapiens), readout pKi, item CCCCCCOP(=O)(c1ccc(OC)cc1)N1Cc2ccccc2CC1C(=O)NO (stereo not given)
7.49

# value lookup — system Disintegrin and metalloproteinase domain-containing protein 17 (Homo sapiens), readout pKi, item CCOP(=O)(c1ccccc1)N1Cc2ccccc2CC1C(=O)NO (stereo not given)
7.95

====

// Stromelysin-1 (Homo sapiens, UniProt P08254) pKi records
In simple prose, pKi is minus the logarithm base ten of a concentration in moles per litre.

Given CCOP(=O)(c1ccc(F)cc1)N1Cc2ccccc2CC1C(=O)NO (stereo not given) , state its recorded pKi.
7.19

Given CCOP(=O)(c1ccncc1)N1Cc2ccccc2CC1C(=O)NO (stereo not given) , state its recorded pKi.
6.72

Given CCOP(=O)(c1ccc(Oc2ccc(N)cc2)cc1)N1Cc2ccccc2CC1C(=O)NO (stereo not given) , state its recorded pKi.
9.30

Given CCOP(=O)(c1ccc(OC)cc1)N1CCCC1C(=O)NO (stereo not given) , state its recorded pKi.
6.28

Given CCOP(=O)(c1ccc(Oc2ccccc2)cc1)N1Cc2ccccc2CC1C(=O)NO (stereo not given) , state its recorded pKi.
9.28

Given CCCCCCOP(=O)(c1ccc(OC)cc1)N1Cc2ccccc2CC1C(=O)NO (stereo not given) , state its recorded pKi.
8.28

Given CCN(CC)CCOP(=O)(c1ccc(OC)cc1)N1Cc2ccccc2CC1C(=O)NO (stereo not given) , state its recorded pKi.
7.08

Given CCOP(=O)(c1ccc(OC)cc1)N1CCN(C(=O)OCc2ccccc2)CC1C(=O)NO (stereo not given) , state its recorded pKi.
7.83

====

Please respond with reported IC50 for every item in the list.
- TARGET_UNDER_TEST: Disintegrin and metalloproteinase domain-containing protein 9 (Homo sapiens)
- Sequence (Q13443 whole entry): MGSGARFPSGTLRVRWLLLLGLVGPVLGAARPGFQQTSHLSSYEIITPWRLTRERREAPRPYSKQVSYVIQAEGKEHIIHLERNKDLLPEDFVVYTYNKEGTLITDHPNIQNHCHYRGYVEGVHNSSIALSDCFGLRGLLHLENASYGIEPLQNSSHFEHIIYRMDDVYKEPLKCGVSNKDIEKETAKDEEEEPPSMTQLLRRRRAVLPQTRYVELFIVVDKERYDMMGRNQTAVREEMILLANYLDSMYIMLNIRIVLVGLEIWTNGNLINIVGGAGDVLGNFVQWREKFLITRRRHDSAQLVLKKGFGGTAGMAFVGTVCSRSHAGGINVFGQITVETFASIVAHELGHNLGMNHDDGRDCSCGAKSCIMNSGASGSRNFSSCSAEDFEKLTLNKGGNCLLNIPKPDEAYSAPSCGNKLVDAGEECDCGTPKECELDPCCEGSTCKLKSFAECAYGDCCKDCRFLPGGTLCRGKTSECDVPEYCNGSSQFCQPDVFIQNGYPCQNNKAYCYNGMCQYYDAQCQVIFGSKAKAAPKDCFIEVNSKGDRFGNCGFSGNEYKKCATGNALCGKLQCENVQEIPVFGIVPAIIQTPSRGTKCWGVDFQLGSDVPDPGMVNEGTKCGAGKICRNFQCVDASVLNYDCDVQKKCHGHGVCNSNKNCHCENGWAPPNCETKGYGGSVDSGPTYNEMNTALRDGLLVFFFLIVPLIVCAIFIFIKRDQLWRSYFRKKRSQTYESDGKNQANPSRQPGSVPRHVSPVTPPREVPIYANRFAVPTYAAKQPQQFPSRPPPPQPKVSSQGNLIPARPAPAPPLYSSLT
- TEST_SUMMARY: Inhibition of the heparin binding epidermal growth factor (HB-EGF) release from fibrosarcoma HT1080 transfectants expressing […] (AP) tagged HB-EGF stimulated by 12-O-tetradecanoylphorbol 13-acetate(TPA).
The reply should be a number in nM, with the unit left off.

# value lookup — system Disintegrin and metalloproteinase domain-containing protein 9 (Homo sapiens), readout IC50, item CCOP(=O)(c1ccc(OC)cc1)N1Cc2[nH]c3ccccc3c2CC1C(=O)NO (stereo not given)
800

# value lookup — system Disintegrin and metalloproteinase domain-containing protein 9 (Homo sapiens), readout IC50, item CCN(CC)CCOP(=O)(c1ccc(OC)cc1)N1Cc2ccccc2CC1C(=O)NO (stereo not given)
1140

# value lookup — system Disintegrin and metalloproteinase domain-containing protein 9 (Homo sapiens), readout IC50, item CCOP(=O)(CCc1ccccc1)N1Cc2ccccc2CC1C(=O)NO (stereo not given)
700

# value lookup — system Disintegrin and metalloproteinase domain-containing protein 9 (Homo sapiens), readout IC50, item CCOP(=O)(c1ccc(OC)cc1)N1CCN(C(=O)OCc2ccccc2)CC1C(=O)NO (stereo not given)
430

# value lookup — system Disintegrin and metalloproteinase domain-containing protein 9 (Homo sapiens), readout IC50, item CCOP(=O)(c1ccc(OC)cc1)N1Cc2nccnc2CC1C(=O)NO (stereo not given)
560

# value lookup — system Disintegrin and metalloproteinase domain-containing protein 9 (Homo sapiens), readout IC50, item CCOP(=O)(c1ccc(Oc2ccc(N)cc2)cc1)N1Cc2ccccc2CC1C(=O)NO (stereo not given)
1670

# value lookup — system Disintegrin and metalloproteinase domain-containing protein 9 (Homo sapiens), readout IC50, item CCOP(=O)(c1ccc(Oc2ccccc2)cc1)N1Cc2ccccc2CC1C(=O)NO (stereo not given)
260

# value lookup — system Disintegrin and metalloproteinase domain-containing protein 9 (Homo sapiens), readout IC50, item CCO[P@@](=O)(c1ccc(OC)cc1)N1Cc2ccccc2CC1C(=O)NO (stereo not given in full)
230

# value lookup — system Disintegrin and metalloproteinase domain-containing protein 9 (Homo sapiens), readout IC50, item CCCCOP(=O)(c1ccc(OC)cc1)N1Cc2ccccc2CC1C(=O)NO (stereo not given)
810

====

- TARGET_UNDER_TEST: Interstitial collagenase (Homo sapiens)
- Sequence (P03956 whole entry): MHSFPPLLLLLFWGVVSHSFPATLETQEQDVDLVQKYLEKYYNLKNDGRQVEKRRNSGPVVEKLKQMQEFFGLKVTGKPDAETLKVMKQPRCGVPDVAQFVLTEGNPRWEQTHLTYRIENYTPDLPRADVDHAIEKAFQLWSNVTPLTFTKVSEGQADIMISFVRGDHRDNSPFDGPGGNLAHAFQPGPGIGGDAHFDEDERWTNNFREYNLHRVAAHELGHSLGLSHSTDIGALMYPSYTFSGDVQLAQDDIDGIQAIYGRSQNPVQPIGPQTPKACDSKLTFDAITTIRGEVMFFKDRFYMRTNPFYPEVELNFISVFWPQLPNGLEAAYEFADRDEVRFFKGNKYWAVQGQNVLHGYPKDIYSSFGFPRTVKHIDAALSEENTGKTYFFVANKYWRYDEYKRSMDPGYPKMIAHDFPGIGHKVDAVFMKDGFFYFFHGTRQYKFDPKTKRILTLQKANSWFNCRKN
- TEST_SUMMARY: Inhibitory activity against matrix metalloprotease-1 (MMP-1)(recombinant human collagenase-1).
REPORTED_ENDPOINT: pKi
In simple prose, pKi is minus the logarithm base ten of a concentration in moles per litre.

# value lookup — system Interstitial collagenase (Homo sapiens), readout pKi, item CCOP(=O)(c1ccc(C)cc1)N1Cc2ccccc2CC1C(=O)NO (stereo not drawn)
8.31

# value lookup — system Interstitial collagenase (Homo sapiens), readout pKi, item CCOP(=O)(c1ccccc1F)N1Cc2ccccc2CC1C(=O)NO (stereo not drawn)
7.62

# value lookup — system Interstitial collagenase (Homo sapiens), readout pKi, item CCOP(=O)(c1ccc(OC)cc1)N1Cc2nccnc2CC1C(=O)NO (stereo not drawn)
8.11

====

- TARGET_UNDER_TEST: Interstitial collagenase (Homo sapiens)
- TEST_SUMMARY: Inhibitory activity against matrix metalloprotease-1 (MMP-1)(recombinant human collagenase-1).
Ki strictly less than 10 nM = Y. Otherwise N.

Take the compound CCOP(=O)(c1ccncc1)N1Cc2ccccc2CC1C(=O)NO (configuration not stated) and say whether its Ki is less than 10 nM.
N

Take the compound COc1ccc(P(=O)(OCCc2ccccc2)N2Cc3ccccc3CC2C(=O)NO)cc1 (configuration not stated) and say whether its Ki is less than 10 nM.
Y

Take the compound CCOP(=O)(c1ccc(OC)cc1)N1Cc2[nH]c3ccccc3c2CC1C(=O)NO (configuration not stated) and say whether its Ki is less than 10 nM.
Y

Take the compound CCCCOP(=O)(c1ccc(OC)cc1)N1Cc2ccccc2CC1C(=O)NO (configuration not stated) and say whether its Ki is less than 10 nM.
Y

Take the compound CCO[P@](=O)(c1ccc(OC)cc1)N1Cc2ccccc2CC1C(=O)NO (some centres not stated) and say whether its Ki is less than 10 nM.
N

Take the compound CCOP(=O)(CCc1ccccc1)N1Cc2ccccc2CC1C(=O)NO (configuration not stated) and say whether its Ki is less than 10 nM.
N

Take the compound COc1ccc(P(=O)(OC)N2Cc3ccccc3CC2C(=O)NO)cc1 (configuration not stated) and say whether its Ki is less than 10 nM.
Y

Take the compound CCOP(=O)(c1ccc(OC)cc1)N1CCCC1C(=O)NO (configuration not stated) and say whether its Ki is less than 10 nM.
N

Take the compound CCOP(=O)(c1ccc(-c2ccccc2)cc1)N1Cc2ccccc2CC1C(=O)NO (configuration not stated) and say whether its Ki is less than 10 nM.
Y

Take the compound CCO[P@@](=O)(c1ccc(OC)cc1)N1Cc2ccccc2CC1C(=O)NO (some centres not stated) and say whether its Ki is less than 10 nM.
Y

Take the compound CCO[P@](=O)(c1ccc(OC)cc1)N1Cc2ccccc2C[C@H]1C(=O)NO and say whether its Ki is less than 10 nM.
N

Take the compound CCOP(=O)(c1ccc(OC)cc1)N1Cc2cc(N)ccc2CC1C(=O)NO (configuration not stated) and say whether its Ki is less than 10 nM.
N

Take the compound CCN(CC)CCOP(=O)(c1ccc(OC)cc1)N1Cc2ccccc2CC1C(=O)NO (configuration not stated) and say whether its Ki is less than 10 nM.
N

Take the compound CCOP(=O)(c1ccc(Oc2ccncc2)cc1)N1Cc2ccccc2CC1C(=O)NO (configuration not stated) and say whether its Ki is less than 10 nM.
N

Take the compound CCCCCCOP(=O)(c1ccc(OC)cc1)N1Cc2ccccc2CC1C(=O)NO (configuration not stated) and say whether its Ki is less than 10 nM.
N

Take the compound CCOP(=O)(c1ccc(N)cc1)N1Cc2ccccc2CC1C(=O)NO (configuration not stated) and say whether its Ki is less than 10 nM.
N

Take the compound CCOP(=O)(c1ccccc1)N1Cc2ccccc2CC1C(=O)NO (configuration not stated) and say whether its Ki is less than 10 nM.
N

Take the compound CCOP(=O)(c1cccs1)N1Cc2ccccc2CC1C(=O)NO (configuration not stated) and say whether its Ki is less than 10 nM.
N

Take the compound COc1ccc(P(=O)(OCCc2ccccn2)N2Cc3ccccc3CC2C(=O)NO)cc1 (configuration not stated) and say whether its Ki is less than 10 nM.
Y

Take the compound CCOP(=O)(c1ccc(Oc2ccccc2)cc1)N1Cc2ccccc2CC1C(=O)NO (configuration not stated) and say whether its Ki is less than 10 nM.
Y

Take the compound CCO[P@@](=O)(c1ccc(OC)cc1)N1Cc2ccccc2C[C@H]1C(=O)NO and say whether its Ki is less than 10 nM.
N

Take the compound COc1ccc(P(=O)(OCCc2ccc(-c3ccccc3)cc2)N2Cc3ccccc3CC2C(=O)NO)cc1 (configuration not stated) and say whether its Ki is less than 10 nM.
Y
